- measuredTarget: RNC_(RodZ): ribosome-nascent chain complex displaying the N-terminal 180 amino acids of RodZ (UniProt P27434)
- testMethodNotes: FRET or BRET
endpointLabel: Kd (nM)
The response must be a number in nM with no trailing unit.

What measured Kd goes with SecA(C98S/S12C) labeled at residue 12 with BODIPY-FL (from UniProt P10408 1-901) (enzyme) ?
19

###

- measuredTarget: RNC_(RodZ) bearing the mutant TMD with two arginines introduced (UniProt P27434)
- testMethodNotes: FRET or BRET
endpointLabel: pKd
Would you please state pKd, meaning minus log10 of the concentration in mol/L, as a bare number?

What measured pKd goes with SecA(C98S/S12C) labeled at residue 12 with BODIPY-FL (from UniProt P10408 1-901) (enzyme) ?
7.59
